- assay.info: Solubility in Japanese Pharmacopeia First Fluid (JP1) and Second Fluid (JP2)
- Type: physicochemical
- condition.notes: pH 6.8, aqueous buffer, thermodynamic from solid; Japanese Pharmacopeia Second Fluid (JP2), room temperature; read-out: Solubility JP2
Class criterion met: solubility at 30 min at least 300 µg/mL. Class criterion not met: solubility at 30 min below 300 µg/mL.

Reference set, count: 3
- smiles.string: "Cn1cc(-c2cc(N3CCOCC3)c3nc(C(=O)N4CCC(N5CCOCC5)CC4)[nH]c3n2)cn1"
  answer.label: "criterion met"
- smiles.string: "C[C@@H]1CN(C2CCN(C(=O)c3nc4c(N5CCOCC5)nc(-c5cnn(C)c5)nc4[nH]3)CC2)C[C@H](C)O1"
  answer.label: "criterion not met"
- smiles.string: "Cn1cc(-c2nc(N3CCOCC3)c3nc(C(=O)N4CCC(N5CCOCC5)CC4)[nH]c3n2)cn1"
  answer.label: "criterion not met"

Exercise: Determine whether this compound has solubility at 30 min no lower than 300 µg/mL: Cc1nn(C)cc1-c1nc2[nH]c(C(=O)N3CCC(N(C)C)CC3)nc2c(N2CCOCC2)c1F
Solution: criterion met

Provenance of the data: patent US10174035B2
